Target or system: apical domain of CD71 (Screen 3: 'cynomolgus apical domain of human CD71') (cynomolgus (as paragraph 454 words it; ambiguous))
Measurement description: primary ELISA, RLU ratio to HSA
Result type: Apical domain:HSA

[P] CD71-binding FN3 domain SEQ ID NO: 301 (designed binder) MSLPAPKNLVVSRVTEDSARLSWTTPDAAFDSFEIGYFENLYLGEAIVLTVPGSERSYDLTGLKPGTEYWVQIGGVKGGNWSAPLSAIFTT
[Q] CD71-binding FN3 domain SEQ ID NO: 265 (designed binder) MSLPAPKNLVVSRVTEDSARLSWTAPDAAFDSFFIGYLEPQPPGEAISLYVPGSERSYDLTGLKPGTEYNVTIQGVKGGFPSDPLVAHFTT
q: Look at P and Q . Which one has the lower recorded Apical domain:HSA number? Answer with the label corresponding to your selection.
a: P
